tested on: IFN induction in dsDNA-stimulated human whole blood; assay: Human whole blood assay, dsDNA transfection, IFNα2a production (hWB IC50); assay type: cell-based;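 note: cGAS pathway activity, IFNα2a in plasma by MSD immunoassay after 22 h at 37 °C, 8 concentrations up to 10 µM in 0.1% DMSO, DMSO controls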
pIC50: −log10 of the molar value.
Label rule, in plain words: pIC50 of 7 and up is TRUE, under 7 is FALSE.

# example entries with known answers
[
  {
    "structure.as.smiles": "COc1cncc(-c2cnc(O[C@H]3C[C@@H](C(=O)O)N(c4nc(C(F)F)nc5c4oc4ccccc45)C3)c([C@@]3(F)CCOC[C@@H]3C)c2)c1",
    "subject.of.test": "IFN induction in dsDNA-stimulated human whole blood",
    "cat": "TRUE"
  },
  {
    "structure.as.smiles": "C#Cc1cnc(O[C@H]2C[C@@H](C(=O)O)N(c3nc(C(F)F)nc4c3oc3ccccc34)C2)c([C@]2(F)CCS(=O)(=O)C(C)(C)C2)c1",
    "subject.of.test": "IFN induction in dsDNA-stimulated human whole blood",
    "cat": "TRUE"
  },
  {
    "structure.as.smiles": "O=C(O)[C@@H]1C[C@H](Oc2ncc(Cl)cc2[C@@]2(F)CCS(=O)(=O)C3(CC3)C2)CN1c1nc(C(F)F)nc2c1oc1ccccc12",
    "subject.of.test": "IFN induction in dsDNA-stimulated human whole blood",
    "cat": "FALSE"
  },
  {
    "structure.as.smiles": "C#Cc1cnc(O[C@H]2C[C@@H](C(=O)O)N(c3nc(C(F)(F)F)nc4c3oc3ccccc34)C2)c([C@]2(F)CCS(=O)(=O)C[C@H]2C)c1",
    "subject.of.test": "IFN induction in dsDNA-stimulated human whole blood",
    "cat": "FALSE"
  },
  {
    "structure.as.smiles": "N#CN1CCC(F)(c2cc(Cl)cnc2O[C@H]2C[C@@H](C(=O)O)N(c3nc(C(F)F)nc4c3oc3ccccc34)C2)CC1",
    "subject.of.test": "IFN induction in dsDNA-stimulated human whole blood",
    "cat": "FALSE"
  },
  {
    "structure.as.smiles": "O=C(O)[C@@H]1C[C@H](Oc2ncc(Cl)cc2[C@@]2(F)CCN3C(=O)OC[C@H]3C2)CN1c1nc(C(F)F)nc2c1oc1ccccc12",
    "subject.of.test": "IFN induction in dsDNA-stimulated human whole blood",
    "cat": "FALSE"
  },
  {
    "structure.as.smiles": "C#Cc1cnc(O[C@H]2C[C@@H](C(=O)O)N(c3nc(C(F)F)nc4c3oc3ccccc34)C2)c(C2(F)CCS(=O)(=O)CC2)c1",
    "subject.of.test": "IFN induction in dsDNA-stimulated human whole blood",
    "cat": "TRUE"
  },
  {
    "structure.as.smiles": "C#Cc1cnc(O[C@H]2C[C@@H](C(=O)O)N(c3nc(C(F)(F)F)nc4c3oc3ccccc34)C2)c([C@@]2(F)CCN(C(C)=O)C[C@@H]2C)c1",
    "subject.of.test": "IFN induction in dsDNA-stimulated human whole blood",
    "cat": "TRUE"
  },
  {
    "structure.as.smiles": "CNc1cccc(-c2cnc(O[C@H]3C[C@@H](C(=O)O)N(c4nc(C(F)F)nc5c4oc4ccccc45)C3)c([C@@]3(F)CCOC[C@@H]3C)c2)c1",
    "subject.of.test": "IFN induction in dsDNA-stimulated human whole blood",
    "cat": "TRUE"
  },
  {
    "structure.as.smiles": "C[C@H]1COCC[C@]1(F)c1cc(Br)cnc1O[C@H]1C[C@@H](C(=O)O)N(c2nc(C(F)F)nc3c2oc2ccccc23)C1",
    "subject.of.test": "IFN induction in dsDNA-stimulated human whole blood",
    "cat": "FALSE"
  }
]

For the next question, use this compound.
[Q] Kindly determine if pIC50 recorded for "O=C(O)[C@@H]1C[C@H](Oc2ncc(-n3cc(Cl)cn3)cc2C2(F)CCOCC2)CN1c1nc(C(F)F)nc2c1oc1ccccc12" is above or exactly 7.
[A] FALSE
